- Tested on: HCV replicon 1A
- protocol_description: Cell-based HCV replicon assay (Replicon Assay A), replicon 1A
- Parameters: species or system Hepatitis C virus (HCV)
- stated_conditions: Hepatitis C virus, 72 h, replicon RNA by real time PCR, cells harvested on day 3
The entries below are paired with their reported EC50.
readout_name: EC50 (nM)

INSERT INTO assay_data (molecule, observed_result) VALUES
  ('COC(=O)N[C@H](C(=O)N1CCC[C@H]1c1ncc(-c2cc(F)c3c(c2)O[C@@H](c2cc(C(C)C)no2)n2c-3cc3cc(-c4cnc([C@@H]5CCCN5C(=O)[C@@H](NC(=O)OC)C(C)C)[nH]4)ccc32)[nH]1)C(C)C (single isomer, unassigned)', 0.0036),
  ('COC(=O)N[C@H](C(=O)N1CCC[C@H]1c1ncc(-c2ccc3c(c2)OC(c2ccc(C)o2)n2c-3cc3cc(-c4cnc([C@@H]5C[C@H]6C[C@H]6N5C(=O)[C@@H](NC(=O)OC)C(C)C)[nH]4)ccc32)[nH]1)C(C)C (some centres unmarked)', 0.0484);
